- method: Single-dose nebulized nose-only inhalation PK in healthy rats
- Format: in vivo, rat
- condition-details: male, Sprague Dawley, rat, in vivo, inhaled or intranasal
The entries below come with measured Lung AUC0-∞ values attached.
Give a bare numeral; the unit µg·h/g is implied.

As a guide, the following entries are already answered.
Enquiry: Param item = CCCCCCCCCCCCCC(=O)OCCNC1(C)CC(OC2C(Oc3c4cc5cc3Oc3ccc(cc3Cl)C(O)C3NC(=O)C(NC(=O)C5NC(=O)C(CC(N)=O)NC(=O)C(NC(=O)C(CC(C)C)NC)C(O)c5ccc(c(Cl)c5)O4)c4ccc(O)c(c4)-c4c(O)cc(O)cc4C(C(=O)O)NC3=O)OC(CO)C(O)C2O)OC(C)C1O (stereo not shown) ; retrieve measured Lung AUC0-∞.
Return: 360

Enquiry: Param item = CCCCCCCCCCCC(=O)NCCNC1(C)CC(OC2C(Oc3c4cc5cc3Oc3ccc(cc3Cl)C(O)C3NC(=O)C(NC(=O)C5NC(=O)C(CC(N)=O)NC(=O)C(NC(=O)C(CC(C)C)NC)C(O)c5ccc(c(Cl)c5)O4)c4ccc(O)c(c4)-c4c(O)cc(O)cc4C(C(=O)O)NC3=O)OC(CO)C(O)C2O)OC(C)C1O (stereo not shown) ; retrieve measured Lung AUC0-∞.
Return: 317

Next:
Enquiry: Param item = CCCCCCCCCCNCCN[C@@]1(C)C[C@H](O[C@H]2[C@H](Oc3c4cc5cc3Oc3ccc(cc3Cl)[C@@H](O)[C@@H](NC(=O)[C@@H](CC(C)C)NC)C(=O)N[C@@H](CC(N)=O)C(=O)N[C@H]5C(=O)N[C@H]3C(=O)N[C@H](C(=O)N[C@H](C(=O)O)c5cc(O)cc(O)c5-c5cc3ccc5O)[C@H](O)c3ccc(c(Cl)c3)O4)O[C@H](CO)[C@@H](O)[C@@H]2O)O[C@@H](C)[C@H]1O ; retrieve measured Lung AUC0-∞.
Return: 9800

Enquiry: Param item = CCCCCCCCCCNC(=O)CNC1(C)CC(OC2C(Oc3c4cc5cc3Oc3ccc(cc3Cl)C(O)C3NC(=O)C(NC(=O)C5NC(=O)C(CC(N)=O)NC(=O)C(NC(=O)C(CC(C)C)NC)C(O)c5ccc(c(Cl)c5)O4)c4ccc(O)c(c4)-c4c(O)cc(O)cc4C(C(=O)O)NC3=O)OC(CO)C(O)C2O)OC(C)C1O (stereo not shown) ; retrieve measured Lung AUC0-∞.
Return: 40671

Reference source: paper PMC8373216
